# target system: hGIPR (Homo sapiens, UniProt P48546)
# Sequence (P48546 22-466): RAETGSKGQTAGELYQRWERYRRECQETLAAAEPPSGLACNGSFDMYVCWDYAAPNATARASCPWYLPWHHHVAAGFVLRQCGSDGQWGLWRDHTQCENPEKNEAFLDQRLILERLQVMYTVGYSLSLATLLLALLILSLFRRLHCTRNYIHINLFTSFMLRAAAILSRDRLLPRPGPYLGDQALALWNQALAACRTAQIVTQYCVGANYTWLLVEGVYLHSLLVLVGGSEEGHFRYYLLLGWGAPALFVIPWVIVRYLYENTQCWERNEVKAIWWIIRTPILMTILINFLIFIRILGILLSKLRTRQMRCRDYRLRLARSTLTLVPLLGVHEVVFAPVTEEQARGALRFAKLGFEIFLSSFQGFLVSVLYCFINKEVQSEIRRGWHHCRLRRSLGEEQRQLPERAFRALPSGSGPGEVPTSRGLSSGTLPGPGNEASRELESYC
# protocol description: Functional cAMP activity in the presence of 1% HSA
# Assay type: cell-based
# condition context: HEK-293 clonal cell line, 1% HSA, geometric mean of relative EC50; read-out: cAMP Rel EC50, hGIPR
pEC50: −log10 of the molar value. Starred links: 1 amine or outer side, 2 acyl side, 3 side chain; linkers in the order of their positions; H or OH if unused. Non-standard residues stand in square brackets, D forms with d. Groups on a side chain read outwards from the residue. No end group written: not given here. *: point of attachment. C18 diacid = O=C(O)CCCCCCCCCCCCCCCCC(=O)*; αMePhe(2-F) = C[C@](N)(Cc1ccccc1F)C(=O)O; γGlu = O=C(O)[C@H](CCC(=O)[*:2])N[*:1]; αMeY = C[C@](N)(Cc1ccc(O)cc1)C(=O)O; 4Pal = N[C@@H](Cc1ccncc1)C(=O)O; αMeL = CC(C)C[C@](C)(N)C(=O)O; αMeS = C[C@](N)(CO)C(=O)O; Orn = NCCC[C@H](N)C(=O)O; AEEA = NCCOCCOCC(=O)O; Aib = CC(C)(N)C(=O)O
pEC50 values for the substances below.
measurement kind: pEC50

substance	data value
H-Y[Aib]QGT[αMePhe(2-F)]TSD[4Pal]SI[αMeL]LDKK([γGlu-γGlu-C18 diacid])AQ[Aib]AFIEYLEEGGPSSGEPPPSGSEE-NH2 [Example 630]	8.53
H-Y[Aib]QGT[αMePhe(2-F)]TSD[4Pal]SI[αMeL]LDKK([γGlu-γGlu-C18 diacid])AQ[Aib][Orn]FIEYLTEGGPSSGEPPPSGSEE-NH2 [Example 638]	8.62
H-Y[Aib]QGT[αMePhe(2-F)]TSD[4Pal][αMeS]I[αMeL]LD[Orn]K([AEEA-γGlu-C18 diacid])AA[Aib]EFI[dE][αMeY]LIEGGPSSGAPPPSGEE-NH2 [Example 703]	9.02
H-Y[Aib]QGT[αMePhe(2-F)]TSD[4Pal]SI[αMeL]LDKK([γGlu-γGlu-C18 diacid])AQ[Aib][Orn]FIEYLAEGGPSSGEPPPSGSEE-NH2 [Example 636]	8.37
H-Y[Aib]QGT[αMePhe(2-F)]TSD[4Pal]SI[αMeL]LDKK([γGlu-γGlu-C18 diacid])AQ[Aib]AFIEYLTEGGPSSGEPPPSGSEE-NH2 [Example 633]	8.79
H-Y[Aib]QGT[αMePhe(2-F)]TSD[4Pal]SI[αMeL]LDKK([γGlu-γGlu-C18 diacid])AQ[Aib][Orn]FIEYLSEGGPSSGEPPPSGSEE-NH2 [Example 637]	8.14
H-Y[Aib]QGT[αMePhe(2-F)]TSDYSI[αMeL]LDKK([AEEA-γGlu-C18 diacid])AQ[Aib]AFIEYLLETGPSSGAPPPSEG-NH2 [Example 417]	8.35
H-Y[Aib]QGT[αMePhe(2-F)]TSD[4Pal]SI[αMeL]LDKK([γGlu-γGlu-C18 diacid])AQ[Aib][Orn]FIEYLTEGGPSSGEPPPEGSEE-NH2 [Example 652]	8.72
H-Y[Aib]QGT[αMePhe(2-F)]TSD[4Pal]SI[αMeL]LDKK([γGlu-γGlu-C18 diacid])AQ[Aib]AFIEYLSEGGPSSGEPPPSGSEE-NH2 [Example 632]	8.26
H-Y[Aib]QGT[αMePhe(2-F)]TSD[4Pal]SI[αMeL]LDKK([γGlu-γGlu-C18 diacid])AQ[Aib][Orn]FIEYLQEGGPSSGEPPPEGSEE-NH2 [Example 653]	8.86
Y[Aib]QGT[αMePhe(2-F)]TSD[4Pal][αMeS]ILLD[Orn]K([γGlu-γGlu-C18 diacid])AQ[Aib][Orn]FI[dE]YLIEGGPSSGEPPPSETE-NH2 [Example 555]	8.27
